Target desc: Rvs167, P39743
Sequence (P39743 419-482): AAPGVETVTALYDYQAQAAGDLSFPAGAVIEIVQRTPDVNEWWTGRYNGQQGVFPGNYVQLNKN
Experimental details: SPOT array
Conditions used: median of control spots 2707
Property name: SPOT intensity

VRTRRRPPPPPIPST ... 45
ILARAILTIPRVLDK ... 0
LSKRLPLRFPEHTSS ... 0
TPTSGPPLLPPRNTM ... 2940
AVPPPPPPPPLPESL ... 0
LYEAMPPTLPHRDWK ... 151
IVNKPLPPLPVAGSS ... 0
FSRRQSMDIPSKNRN ... 0
RKQRSIPLSPIVPES ... 0
VPPVPLPFGIPPFPM ... 0

1: LKVTPGRRAPTISKI
2: NPLPKEPRLPKRKVA
Input: Select one: 1 or 2 . Criterion: greater recorded SPOT intensity. Your answer should be the label attached to the chosen record.
Output: 2
(2: 200, 1: 0)

A: NRLRKRLNLPSEISI
B: SSSSTPPTLPPRRIE
Input: Select one: A or B . Criterion: greater recorded SPOT intensity. Your answer should be the label attached to the chosen record.
Output: B
(B: 5650, A: 0)
